# System: Hepacivirus hominis
# method: Inhibition of HCV NS5B RNA dependent RNA polymerase using UTP/[alpha-32P]UTP as substrate at 50 uM after 1 hr by liquid scintillation counter analysis
Calls of active or inactive are those of the source. No cut-off for these calls is given here.
reportedMetric: inhibition

Consider the worked cases shown below.
Fill in the recorded inhibition for this compound, with Hepacivirus hominis as test system: N#Cc1ccc(/C=N/NC(=O)c2cc(-c3ccc(F)cc3F)ccc2O)cc1
inactive

Also check O=C(N/N=C/c1cccc(C(F)(F)F)c1)c1cc(-c2ccc(F)cc2F)ccc1O
18%

O=C(N/N=C/c1c(F)cccc1F)c1cc(-c2ccc(F)cc2F)ccc1O ?
inactive

O=C(N/N=C/c1ccncc1)c1cc(-c2ccc(F)cc2F)ccc1O ?
7%

The following compounds each have a reported value; give each one's inhibition.
1. O=C(N/N=C/c1cccc(Oc2ccccc2)c1)c1cc(-c2ccc(F)cc2F)ccc1O
2. O=C(N/N=C/c1ccc2ccccc2c1)c1cc(-c2ccc(F)cc2F)ccc1O
3. O=C(N/N=C/c1ccc2c(c1)OC(F)(F)O2)c1cc(-c2ccc(F)cc2F)ccc1O
4. O=C(N/N=C/c1ccc(Cl)c(Cl)c1)c1cc(-c2ccc(F)cc2F)ccc1O
5. O=C(N/N=C/c1c(Cl)cccc1Cl)c1cc(-c2ccc(F)cc2F)ccc1O

1. 14%
2. inactive
3. inactive
4. inactive
5. inactive
